# reported pIC50; entries follow
# TESTED_TARGET: recombinant human arginase 2 (Homo sapiens)
# ASSAY_INFO: Human arginase activity assay (urea measurement), arginase 2
# RUN_PARAMETERS: for selected examples class estimated from % of inhibition at 1 μM and 100 μM, * = most potent diastereoisomer or mixture of diastereoisomers, read-out: Activity Class (ARG II)
pIC50: −log10 of the molar value. Structures can show the parent of a compound that is named as a salt.

| COMPOUND | TESTED_TARGET | pIC50 |
| --- | --- | --- |
| NCC1CCC(CCB(O)O)CC1(N)C(=O)O (stereo not shown) | recombinant human arginase 2 (Homo sapiens) | 6.00 to 7.00 |
| C[C@H]1[C@H](CCB(O)O)CCC1(N)C(=O)O (mixture of isomers) | recombinant human arginase 2 (Homo sapiens) | < 4.00 |
| NC1(C(=O)O)C[C@H](CCB(O)O)CCC1CCN1CCCC1 (stereo partly shown) [Example 46, dihydrochloride] | recombinant human arginase 2 (Homo sapiens) | 7.00 to 9.00 |
| N[C@@]1(C(=O)O)C[C@H](CCB(O)O)[C@@H](O)C1 (racemic) [Example 4, hydrochloride] | recombinant human arginase 2 (Homo sapiens) | 4.00 to 5.00 |
| NC1CCC(CCB(O)O)CC1(N)C(=O)O (single isomer, unassigned) [Example 48, dihydrochloride] | recombinant human arginase 2 (Homo sapiens) | 6.00 to 7.00 |
| CC1(C)[C@H]2C[C@@H]3OB(CC[C@@H]4CC[C@@H](CN5CCCC5)[C@@](N)(C(=O)O)C4)O[C@]3(C)[C@@H]1C2 [Example 45, dihydrochloride] | recombinant human arginase 2 (Homo sapiens) | 6.00 to 7.00 |
| NC[C@@H]1C[C@@H](CCB(O)O)CC(N)(C(=O)O)C1 (mixture of isomers) [Example 54, dihydrochloride] | recombinant human arginase 2 (Homo sapiens) | 5.00 to 6.00 |
| N[C@]1(C(=O)O)C[C@H](CCB(O)O)CC[C@H]1CNCC(F)(F)F (racemic) [Example 36, dihydrochloride] | recombinant human arginase 2 (Homo sapiens) | 6.00 to 7.00 |
| CC1(CCB(O)O)CCC(N)(C(=O)O)C1 (racemic) | recombinant human arginase 2 (Homo sapiens) | < 4.00 |
| NC1CC(CCB(O)O)CC1(N)C(=O)O (stereo not shown) [Example 62, dihydrochloride] | recombinant human arginase 2 (Homo sapiens) | 6.00 to 7.00 |
| N[C@@]1(C(=O)O)C[C@H](CCB(O)O)CC[C@@H]1O (racemic) [Example 15, hydrochloride] | recombinant human arginase 2 (Homo sapiens) | < 4.00 |
| NC(CCCCB(O)O)(CCNCCCc1ccc(Cl)cc1Cl)C(=O)O (stereo not shown) [Comparative example 2, reference compound] | recombinant human arginase 2 (Homo sapiens) | 6.00 to 7.00 |
| NC1(C(=O)O)C[C@H](CCB(O)O)CC[C@@H]1O (mixture of isomers) [Example 16, hydrochloride] | recombinant human arginase 2 (Homo sapiens) | 4.00 to 5.00 |
| NC1CC(CCB(O)O)CC(N)(C(=O)O)C1 (stereo not shown) [Example 56, dihydrochloride] | recombinant human arginase 2 (Homo sapiens) | 6.00 to 7.00 |
| COc1ccc(N(C)C[C@@H]2CC[C@@H](CCB(O)O)C[C@]2(N)C(=O)O)cc1 (racemic) [Example 37, dihydrochloride] | recombinant human arginase 2 (Homo sapiens) | 5.00 to 6.00 |
| N[C@]1(C(=O)O)C[C@H](CCB(O)O)[C@@H](O)C1 (racemic) [Example 5, hydrochloride] | recombinant human arginase 2 (Homo sapiens) | < 4.00 |

====

# TESTED_TARGET: recombinant human arginase 2 (Homo sapiens)
# Construct: made in house; host or cells: CHO
# Sequence (P78540 23-354): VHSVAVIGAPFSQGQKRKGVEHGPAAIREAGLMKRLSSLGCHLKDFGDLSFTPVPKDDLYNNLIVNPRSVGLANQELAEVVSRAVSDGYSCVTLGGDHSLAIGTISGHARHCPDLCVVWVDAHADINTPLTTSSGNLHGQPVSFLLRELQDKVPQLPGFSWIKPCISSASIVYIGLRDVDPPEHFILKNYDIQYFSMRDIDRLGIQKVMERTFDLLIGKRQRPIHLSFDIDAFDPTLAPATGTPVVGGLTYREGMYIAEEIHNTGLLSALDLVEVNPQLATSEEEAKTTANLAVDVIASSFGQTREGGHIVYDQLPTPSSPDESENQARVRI
# ASSAY_INFO: Human arginase activity assay (urea measurement), arginase 2
# Format: biochemical
# RUN_PARAMETERS: for selected examples class estimated from % of inhibition at 1 μM and 100 μM, * = most potent diastereoisomer or mixture of diastereoisomers, read-out: Activity Class (ARG II)
pIC50: −log10 of the molar value. Where a name gives a salt, the structure may show the parent alone.

| MOLECULE | pIC50 |
| --- | --- |
| CNC[C@@H]1CC[C@@H](CCB(O)O)C[C@]1(N)C(=O)O [Example 39, dihydrochloride] | 7.00 to 9.00 |
| CC1(O)CCC(CCB(O)O)CC1(N)C(=O)O (stereo not shown) [Example 50, hydrochloride] | 6.00 to 7.00 |
| N[C@]1(C(=O)O)C[C@H](CCB(O)O)CC[C@H]1CN1CCCCC1 [Example 70] | 6.00 to 7.00 |
| CC1=CCC(CCB(O)O)CC1(N)C(=O)O (stereo not shown) [Example 51, hydrochloride] | 5.00 to 6.00 |
| N[C@]1(C(=O)O)C[C@H](CCB(O)O)CC[C@H]1CN1CCCCC1 (racemic) [Example 31, dihydrochloride] | 6.00 to 7.00 |
| N[C@]1(C(=O)O)C[C@H](CCB(O)O)CC[C@H]1CN1CCCC1 [Example 71] | 7.00 to 9.00 |
| N[C@@](CCCCB(O)O)(C(=O)O)C1CCN(Cc2ccc(Cl)c(Cl)c2)CC1 [Comparative example 3, reference compound] | 6.00 to 7.00 |
| CN(C)C[C@H]1CC[C@@H](CCB(O)O)C[C@]1(N)C(=O)O (racemic) [Example 18, dihydrochloride] | 5.00 to 6.00 |
| NC1(C(=O)O)CCC(CCB(O)O)C1 (racemic) | 5.00 to 6.00 |
| NC[C@H]1C[C@](N)(C(=O)O)C[C@@H]1CCB(O)O (racemic) [Example 6, dihydrochloride] | 5.00 to 6.00 |
| NC1(C(=O)O)CC(CCB(O)O)CC=C1Cc1ccc(Cl)cc1 (stereo not shown) [Example 53, hydrochloride] | 5.00 to 6.00 |
| N[C@@]1(C(=O)O)COC[C@@H](CCB(O)O)C1 (racemic) [Example 61, hydrochloride] | 5.00 to 6.00 |
| CN(C)C[C@@H]1CC[C@@H](CCB2O[C@H]3C[C@H]4C[C@H](C4(C)C)[C@@]3(C)O2)C[C@]1(N)C(=O)O [Example 44, dihydrochloride] | 7.00 to 9.00 |
| CC1(C)CCN(C[C@@H]2CC[C@@H](CCB(O)O)C[C@]2(N)C(=O)O)CC1 (racemic) [Example 26, dihydrochloride] | 6.00 to 7.00 |
| NC1(C(=O)O)CCCCC(CCB(O)O)C1 (stereo not shown) [Example 12, hydrochloride] | < 4.00 |
| CCN(CC)C[C@@H]1CC[C@@H](CCB(O)O)C[C@]1(N)C(=O)O (racemic) [Example 30, dihydrochloride] | 6.00 to 7.00 |

====

# TESTED_TARGET: recombinant human arginase 2 (Homo sapiens)
# ASSAY_INFO: Human arginase activity assay (urea measurement), arginase 2
# RUN_PARAMETERS: for selected examples class estimated from % of inhibition at 1 μM and 100 μM, * = most potent diastereoisomer or mixture of diastereoisomers, read-out: Activity Class (ARG II)
Counter-ions that a name gives are not always drawn.
Entries and their IC50 values follow.
MEASURE: IC50

| MOLECULE | TESTED_TARGET | MEASURE | MEASURED_VALUE |
| --- | --- | --- | --- |
| CN(Cc1ccccc1)CC1CCC(CCB(O)O)CC1(N)C(=O)O (stereo not shown) [Example 21, dihydrochloride] | recombinant human arginase 2 (Homo sapiens) | IC50 | 1 to 10 µM |
| CN(Cc1ccc(Cl)c(Cl)c1)C[C@@H]1CC[C@@H](CCB(O)O)C[C@]1(N)C(=O)O (racemic) [Example 28, dihydrochloride] | recombinant human arginase 2 (Homo sapiens) | IC50 | 0.1 to 1 µM |
| N[C@@H](CCCCB(O)O)C(=O)O [Comparative example 1, reference compound] | recombinant human arginase 2 (Homo sapiens) | IC50 | 1 to 10 µM |
| N[C@]1(C(=O)O)C[C@H](CCB(O)O)CC[C@H]1CN1CCc2ccccc2C1 (racemic) [Example 35, dihydrochloride] | recombinant human arginase 2 (Homo sapiens) | IC50 | 1 to 10 µM |
| N[C@]1(C(=O)O)C[C@H](CCB(O)O)CC[C@H]1CN1CCCC1 (racemic) [Example 22, dihydrochloride] | recombinant human arginase 2 (Homo sapiens) | IC50 | 0.1 to 1 µM |
| CN(C)C1CC(CCB(O)O)CC(N)(C(=O)O)C1 (stereo not shown) [Example 65, dihydrochloride] | recombinant human arginase 2 (Homo sapiens) | IC50 | 10 to 100 µM |
| CN(C)C[C@@H]1CC[C@@H](CCB(O)O)C[C@]1(N)C(=O)O [Example 38] | recombinant human arginase 2 (Homo sapiens) | IC50 | 0.001 to 0.1 µM |
